These entries and their values trace back to ChEMBL document CHEMBL1932960.

- assayTarget: Voltage-gated inwardly rectifying potassium channel KCNH2 (Homo sapiens)
- Sequence (Q12809 whole entry): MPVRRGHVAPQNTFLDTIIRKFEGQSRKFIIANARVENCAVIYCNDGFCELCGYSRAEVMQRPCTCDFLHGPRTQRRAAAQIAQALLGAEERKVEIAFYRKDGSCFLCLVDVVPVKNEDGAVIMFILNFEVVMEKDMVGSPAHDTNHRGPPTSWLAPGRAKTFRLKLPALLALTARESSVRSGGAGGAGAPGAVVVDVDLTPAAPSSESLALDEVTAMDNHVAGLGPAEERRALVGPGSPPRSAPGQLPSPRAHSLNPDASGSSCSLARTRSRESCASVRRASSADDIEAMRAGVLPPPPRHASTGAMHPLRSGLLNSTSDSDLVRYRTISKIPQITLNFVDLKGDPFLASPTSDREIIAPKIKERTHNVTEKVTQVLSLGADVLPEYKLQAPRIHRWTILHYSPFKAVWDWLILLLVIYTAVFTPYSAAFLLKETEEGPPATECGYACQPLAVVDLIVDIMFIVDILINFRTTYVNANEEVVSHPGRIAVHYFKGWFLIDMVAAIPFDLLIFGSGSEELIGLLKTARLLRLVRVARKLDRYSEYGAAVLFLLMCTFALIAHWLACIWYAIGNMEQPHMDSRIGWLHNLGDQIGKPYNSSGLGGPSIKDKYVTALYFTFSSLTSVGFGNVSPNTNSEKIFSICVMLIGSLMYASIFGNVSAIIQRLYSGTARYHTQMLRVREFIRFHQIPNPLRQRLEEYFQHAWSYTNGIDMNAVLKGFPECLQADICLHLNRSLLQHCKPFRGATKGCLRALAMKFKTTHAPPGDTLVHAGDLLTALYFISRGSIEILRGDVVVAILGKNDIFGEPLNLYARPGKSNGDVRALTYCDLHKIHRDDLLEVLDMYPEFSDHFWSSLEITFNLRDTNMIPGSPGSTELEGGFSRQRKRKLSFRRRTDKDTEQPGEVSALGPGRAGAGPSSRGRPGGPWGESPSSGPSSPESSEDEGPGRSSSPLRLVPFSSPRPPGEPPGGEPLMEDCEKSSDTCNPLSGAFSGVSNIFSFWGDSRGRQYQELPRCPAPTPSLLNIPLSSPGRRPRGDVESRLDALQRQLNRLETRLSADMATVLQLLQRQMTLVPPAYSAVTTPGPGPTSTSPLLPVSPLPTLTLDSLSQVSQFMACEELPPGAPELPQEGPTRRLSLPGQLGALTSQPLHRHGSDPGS
resultType: IC50 (nM)
Quick reminder: number only, in nM, skip the unit.

Record CC(=O)N[C@@H]1CC2(CCN(Cc3ccc4c(c3)c3ccccc3n4C(N)=O)CC2)c2ccccc21 , field IC50: 2000

----------
List of log10 of clearance values.
- assayProcedure: Clearance in rat at 0.5 mg/kg, iv
- Format: ADME, organism-based
- Design: dose 0.5 mg/kg, route intravenous
- conditionContext: in vivo
Use the decimal logarithm of clearance (mL/min/kg).

Record CC(=O)N[C@@H]1CC2(CCN(Cc3ccc4c(c3)c3ccccc3n4C(N)=O)CC2)c2ccccc21 , field log10 of clearance: 1.22

Continuing:
Record CC(=O)N[C@@H]1CC2(CCN(Cc3ccc4[nH]c5ccc(Cl)cc5c4c3)CC2)c2ccccc21 , field log10 of clearance: 1.12
